Experimental System: T1, murine TIM-3 protein with hFc tag (mTIM-3-hFc protein) (mouse; human, UniProt Q8VIM0 29-191)
T1 construct: Made in HEK293 cells; also called mouse TIM-3 extracellular domain protein; not shown: human IgG Fc fragment (hFc) of the pCpC vector
T1 chain: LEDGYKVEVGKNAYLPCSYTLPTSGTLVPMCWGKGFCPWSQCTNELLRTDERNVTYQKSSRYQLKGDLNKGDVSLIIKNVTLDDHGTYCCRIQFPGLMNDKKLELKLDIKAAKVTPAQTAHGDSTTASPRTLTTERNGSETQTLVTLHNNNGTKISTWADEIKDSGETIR
Experimental Details: ELISA, coated mTIM-3-hFc; antibody 66.667 nM

- Binder: "39E5H1 (TIM-3 antibody purified from hybridoma, chimeric antibody of Example 2) (antibody, V domains shown, From hybridoma of Harbour H2L2 transgenic mice: human variable regions, rat constant regions) VH: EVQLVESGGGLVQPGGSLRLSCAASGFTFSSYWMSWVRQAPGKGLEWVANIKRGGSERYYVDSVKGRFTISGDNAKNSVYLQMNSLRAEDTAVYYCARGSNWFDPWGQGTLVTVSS VL: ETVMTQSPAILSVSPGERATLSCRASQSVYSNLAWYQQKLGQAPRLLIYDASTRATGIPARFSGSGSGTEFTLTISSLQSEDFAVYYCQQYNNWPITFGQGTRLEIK"
  OD450: 0.9
- Binder: "34B6D8 (TIM-3 antibody purified from hybridoma, chimeric antibody of Example 2) (antibody, V domains shown, From hybridoma of Harbour H2L2 transgenic mice: human variable regions, rat constant regions) VH: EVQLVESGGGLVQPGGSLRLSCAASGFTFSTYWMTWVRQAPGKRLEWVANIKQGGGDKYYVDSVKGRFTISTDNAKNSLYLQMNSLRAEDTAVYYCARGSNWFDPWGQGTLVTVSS VL: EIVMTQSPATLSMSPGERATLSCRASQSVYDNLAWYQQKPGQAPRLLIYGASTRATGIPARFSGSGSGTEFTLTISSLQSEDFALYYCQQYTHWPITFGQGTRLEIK"
  OD450: 1.1
- Binder: "7A4F10 (TIM-3 antibody purified from hybridoma, chimeric antibody of Example 2) (antibody, V domains shown, From hybridoma of Harbour H2L2 transgenic mice: human variable regions, rat constant regions) VH: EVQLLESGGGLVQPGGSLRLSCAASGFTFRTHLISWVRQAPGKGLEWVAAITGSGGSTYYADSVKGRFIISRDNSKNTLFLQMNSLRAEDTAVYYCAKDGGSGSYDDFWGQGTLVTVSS VL: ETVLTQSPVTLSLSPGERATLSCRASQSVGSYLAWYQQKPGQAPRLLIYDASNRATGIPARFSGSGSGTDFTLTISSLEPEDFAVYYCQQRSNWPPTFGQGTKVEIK"
  OD450: 0.66
